FYI, the data here is from paper PMC6896485.

- systemName: hCA IX (Homo sapiens, UniProt Q16790)
- Construct: gene CA9; recombinant, obtained in-house
- protocolDescription: stopped-flow CO2 hydration
- Type: biochemical
- experimentalConditions: CO2 […], Hepes pH […] Na2SO4, […] h preincubation at room temperature; read-out: KI (nM) ^* / CA IX
quantityName: Ki (nM)
Answer format: numeric, nM implied, no suffix.

Q: I am curious: what Ki value has been reported for O=S1(=O)CC=Cc2ccc(-c3ccc(C(F)(F)F)cc3)cc2O1 ?
A: 44

---

- systemName: hCA XII (Homo sapiens, UniProt O43570)
- Construct: gene CA12; recombinant, obtained in-house
- Sequence (O43570 25-354): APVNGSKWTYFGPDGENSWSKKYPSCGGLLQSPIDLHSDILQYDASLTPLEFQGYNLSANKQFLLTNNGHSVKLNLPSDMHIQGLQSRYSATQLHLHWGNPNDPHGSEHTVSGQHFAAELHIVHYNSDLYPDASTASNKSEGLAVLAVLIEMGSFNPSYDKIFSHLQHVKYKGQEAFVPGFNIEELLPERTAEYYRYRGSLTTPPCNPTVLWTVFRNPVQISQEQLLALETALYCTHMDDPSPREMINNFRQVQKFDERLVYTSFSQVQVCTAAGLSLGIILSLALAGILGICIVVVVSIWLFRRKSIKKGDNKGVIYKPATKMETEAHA
- protocolDescription: stopped-flow CO2 hydration
- Assay type: biochemical
- experimentalConditions: read-out: KI (nM) ^* / CA XII
quantityName: Ki (nM)
Express the result in nM but write the number alone.

Q: Item under review: COc1ccc(-c2ccc3c(c2)C=CCS(=O)(=O)O3)cc1 . Reported Ki?
A: 2930

Q: For the compound O=S1(=O)CC=Cc2cc(-c3ccccc3)ccc2O1 , what Ki is on record?
A: 1380

Q: What Ki value was documented for this compound, O=S1(=O)CC=Cc2cccc(Br)c2O1 ?
A: 3820

Q: So what's the measured Ki for this one? O=S1(=O)CC=Cc2cc(-c3ccc(C(F)(F)F)cc3)ccc2O1
A: 4020

Q: Could you tell me which Ki is on file for CCOC(=O)c1ccc(-c2ccc3c(c2)OS(=O)(=O)CC=C3)cc1 ?
A: 289

Q: Give the measured Ki of O=S1(=O)CC=Cc2ccc(Br)cc2O1 .
A: 133

Q: So what does the record say about Ki for O=S1(=O)CC=Cc2ccc(-c3ccc(C(F)(F)F)cc3)cc2O1 ?
A: 248

Q: Endpoint output: Ki of CCOC(=O)c1ccc(-c2ccc3c(c2)C=CCS(=O)(=O)O3)cc1 . Value?
A: 2400

Q: Can you look up the measured Ki of COc1ccc(-c2ccc3c(c2)OS(=O)(=O)CC=C3)cc1 for me?
A: 169

Q: Would you kindly share the measured Ki for O=S1(=O)CC=Cc2cc(I)ccc2O1 ?
A: 455

Q: Look at this compound and give its reported Ki. O=S1(=O)CC=Cc2ccc(-c3ccccc3)cc2O1
A: 473

Q: Name the recorded Ki for O=S1(=O)CC=Cc2cc(-c3ccc(F)cc3)ccc2O1 .
A: 890
